- Target system: T1, Human IL-34 (19–241) (human, UniProt Q6ZMJ4 19-241)
- T1 construct: IL-34, human, residues 19-241, cloned into pHLsec; the oligomeric state was not measured here; source: Expi293F cells, secreted, purified from the media using NiNTA chromatography
- T1 sequence (looked up): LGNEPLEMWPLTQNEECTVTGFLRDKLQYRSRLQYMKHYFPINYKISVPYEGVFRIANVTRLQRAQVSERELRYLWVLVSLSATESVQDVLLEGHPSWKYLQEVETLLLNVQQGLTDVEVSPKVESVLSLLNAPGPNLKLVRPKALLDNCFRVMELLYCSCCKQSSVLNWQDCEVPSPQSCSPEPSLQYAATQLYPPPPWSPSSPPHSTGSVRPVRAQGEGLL
- Assay summary: BLI; biotinylated TREM2 WT and variants immobilised on SA biosensors; IL-34 62.5 – 1000 nM in PBS with 0.1% BSA and 0.005% Tween-20; 1:1 kinetic fits
- Measurement parameters: both partners purified
pKd: −log10 of the molar value.
Reported metric: pKd

# Binder, Val
records = [
    ("TREM2 R122E (receptor, biotin on the C-terminal BirA biotinylation sequence) HNTTVFQGVAGQSLQVSCPYDSMKHWGRRKAWCRQLGEKGPCQRVVSTHNLWLLSFLRRWNGSTAITDDTLGGTLTITLRNLQPHDAGLYQCQSLHGSEADTLEKVLVEVLADPLD", 7.53),
    ("TREM2 R122D/K123D (receptor, biotin on the C-terminal BirA biotinylation sequence) HNTTVFQGVAGQSLQVSCPYDSMKHWGRRKAWCRQLGEKGPCQRVVSTHNLWLLSFLRRWNGSTAITDDTLGGTLTITLRNLQPHDAGLYQCQSLHGSEADTLDDVLVEVLADPLD", 7.73),
    ("TREM2 R62H (receptor, human, UniProt Q9NZC2 19-230, looked up, biotin on the C-terminal BirA biotinylation sequence, TREM2, human, AD risk variant; As m1 with the substitution; source: Expi293F cells, purified, enzymatically biotinylated using BirA) HNTTVFQGVAGQSLQVSCPYDSMKHWGRRKAWCRQLGEKGPCQHVVSTHNLWLLSFLRRWNGSTAITDDTLGGTLTITLRNLQPHDAGLYQCQSLHGSEADTLRKVLVEVLADPLDHRDAGDLWFPGESESFEDAHVEHSISRSLLEGEIPFPPTS", 7.12),
    ("TREM2 W44D/L69D/L71D (receptor, biotin on the C-terminal BirA biotinylation sequence) HNTTVFQGVAGQSLQVSCPYDSMKHDGRRKAWCRQLGEKGPCQRVVSTHNDWDLSFLRRWNGSTAITDDTLGGTLTITLRNLQPHDAGLYQCQSLHGSEADTLRKVLVEVLADPLD", 7.59),
    ("TREM2 D87N (receptor, human, UniProt Q9NZC2 19-230, looked up, biotin on the C-terminal BirA biotinylation sequence, TREM2, human, AD risk variant; As m1 with the substitution; source: Expi293F cells, purified, enzymatically biotinylated using BirA) HNTTVFQGVAGQSLQVSCPYDSMKHWGRRKAWCRQLGEKGPCQRVVSTHNLWLLSFLRRWNGSTAITDNTLGGTLTITLRNLQPHDAGLYQCQSLHGSEADTLRKVLVEVLADPLDHRDAGDLWFPGESESFEDAHVEHSISRSLLEGEIPFPPTS", 7.55),
    ("TREM2 WT (receptor, human, UniProt Q9NZC2 19-230, looked up, biotin on the C-terminal BirA biotinylation sequence, TREM2, human; also called triggering receptor expressed on myeloid cells-2; source: Expi293F cells, purified, enzymatically biotinylated using BirA) HNTTVFQGVAGQSLQVSCPYDSMKHWGRRKAWCRQLGEKGPCQRVVSTHNLWLLSFLRRWNGSTAITDDTLGGTLTITLRNLQPHDAGLYQCQSLHGSEADTLRKVLVEVLADPLDHRDAGDLWFPGESESFEDAHVEHSISRSLLEGEIPFPPTS", 7.78),
]

[a] TREM2 L75D (receptor, biotin on the C-terminal BirA biotinylation sequence) HNTTVFQGVAGQSLQVSCPYDSMKHWGRRKAWCRQLGEKGPCQRVVSTHNLWLLSFDRRWNGSTAITDDTLGGTLTITLRNLQPHDAGLYQCQSLHGSEADTLRKVLVEVLADPLD
[b] TREM2 R46D (receptor, biotin on the C-terminal BirA biotinylation sequence) HNTTVFQGVAGQSLQVSCPYDSMKHWGDRKAWCRQLGEKGPCQRVVSTHNLWLLSFLRRWNGSTAITDDTLGGTLTITLRNLQPHDAGLYQCQSLHGSEADTLRKVLVEVLADPLD
// which entry reports the smaller pKd, a or b ? Please reply using the label of the selected record.
a
